Measured values drawn from PubChem BioAssay (NCI) for this set.

- Tested on: DU-145 prostate
- experiment notes: NCI-60 one-dose screen, 48 h (100 = growth as untreated, 0 = no growth, -100 = all killed)
- recorded conditions: 10 µM unless noted
This is part of a sample that, as a whole, favours compounds with a hit. Of some 83,000 tested, about 20% had one in any assay. Activity calls are given as the source filed them. The calls were made as follows: active = growth percent below 10; inactive = the rest.
parameter: growth

// solved cases for growth follow
* CCCn1cnc2c1c(=O)n(CCCCC(C)=O)c(=O)n2C | 118% (inactive)
* CN(CC(=O)N(Cc1ccc(C2CCCCC2)cc1)c1ccc(C(=O)O)cc1)S(=O)(=O)c1c(F)c(F)c(F)c(F)c1F | -18% (active)
* COc1ncc(-c2ccc3nccc(C#CCN4CCN(S(C)(=O)=O)CC4)c3c2)cc1NS(=O)(=O)c1ccc(F)cc1F | 17.9% (inactive)

Query: Param item = O=C(Cc1ccccn1)C(F)(F)C(F)(F)C(F)(F)F ; retrieve measured growth.
Reply: 112% (inactive)

Query: Param item = C=C(C[C@@](O)(C(=O)Oc1ccccc1)C(=O)C1CCCCC1)c1ccccc1 ; retrieve measured growth.
Reply: 110% (inactive)

Query: Param item = ClC1=C(Cl)C(Cl)=C(Cl)C1=Cc1ccc(Cl)cc1 ; retrieve measured growth.
Reply: -75.4% (active)

Query: Param item = CCC(c1ccccc1)c1noc(CCN(CC)CC)n1 (stereo not given) ; retrieve measured growth.
Reply: 100% (inactive)

----------
- Test system: SW-620 colon
- experiment notes: NCI-60 one-dose screen, 48 h (100 = growth as untreated, 0 = no growth, -100 = all killed)
- recorded conditions: 10 µM unless noted
The panel holds about 83,000 compounds, 20% with a hit somewhere; the sample as a whole holds those more often. Calls of active or inactive are those of the source. Rule for the calls: active = growth percent below 10; inactive = the rest.
parameter: growth

// solved cases for growth follow
* COc1ccccc1[C@H]1c2[nH]c3ccccc3c2C[C@H]2C(=O)N(CCCCCCC(=O)NO)CC(=O)N12 | 15.6% (inactive)
* COc1ccc(Cn2c(NCCCN(C)C)nc(=O)n(Cc3ccc(F)cc3)c2=O)cc1 | 100% (inactive)
* CCCCCCCC/C=C\CCCCCCCCOc1ccccc1CC(=O)NCC[N+]1(C)CCCC1 | 78.9% (inactive)
* CCOC(=O)c1ccccc1OC(=O)NNc1ccccc1 | 45.6% (inactive)
* Oc1ccccc1/C=N\Nc1ccccc1 | 34.5% (inactive)

Query: Param item = O=C(/C=C/c1cc2ccccc2[nH]c1=O)c1ccc(Cl)cc1 ; retrieve measured growth.
Reply: -19.9% (active)

Query: Param item = CCCCC1Nc2nc(SC)n(C)c(=O)c2CN(Cc2ccccc2)C1=O (configuration not stated) ; retrieve measured growth.
Reply: 107% (inactive)

Query: Param item = CN1C(=O)C(=Cc2cn(Cc3ccccc3)c3ccc(Br)cc23)C(=O)N(C)C1=O ; retrieve measured growth.
Reply: 108% (inactive)

Query: Param item = OC(CCC(O)(c1ccccc1)c1ccccc1)(c1ccccc1)c1ccccc1 ; retrieve measured growth.
Reply: 69.6% (inactive)

----------
- Test system: SF-268 CNS
- experiment notes: NCI-60 one-dose screen, 48 h (100 = growth as untreated, 0 = no growth, -100 = all killed)
- recorded conditions: 10 µM unless noted
This is part of a sample that, as a whole, favours compounds with a hit. Of some 83,000 tested, about 20% had one in any assay.
Measured growth, listed per entry.
Express your answer in %, writing the number without its unit.

- COc1ccc2c(c1)nc(N)c1c3ccccc3cn21: 81
- CCCCCCCCCCCCNc1ncnc2[nH]ncc12: 84
- Nc1ccccc1-c1ccc([N+](=O)[O-])cc1: 49.4

Query: Param item = CCOC(=O)c1cc(-c2cccnc2)nc2c(Cl)cc(Cl)cc12 ; retrieve measured growth.
Reply: 73
